Source of measurements: patent US6140368A

Target: HIV integrase (Human immunodeficiency virus type 1 group M subtype B, UniProt P04585)
Assay: biochemical
Details: read-out: Inhibition of strand transfer (IC50)
property measured: pIC50
The quantity pIC50 is defined as the negative base-10 logarithm of the molar concentration.

Sample answers from the record:
>>> assay_value("O=C(O)CCC(NC(=O)c1ccc(N=Nc2c(S(=O)(=O)O)cc3cc(NC(=O)Nc4ccc5c(O)c(N=Nc6ccc(C(=O)NC(CCC(=O)O)C(=O)O)cc6)c(S(=O)(=O)O)cc5c4)ccc3c2O)cc1)C(=O)O (centres unmarked)")
6.05
>>> assay_value("COc1ccc(C(=O)O)c(N=Nc2c(S(=O)(=O)O)cc3cc(NC(=O)C(=O)Nc4ccc5c(O)c(N=Nc6c(C(=O)O)ccc(OC)c6OC)c(S(=O)(=O)O)cc5c4)ccc3c2O)c1OC")
5.70
>>> assay_value("O=C(O)CCC(NC(=O)c1ccc(N=Nc2c(S(=O)(=O)O)cc3cc(NC(=O)C(=O)Nc4ccc5c(O)c(N=Nc6ccc(C(=O)NC(CCC(=O)O)C(=O)O)cc6)c(S(=O)(=O)O)cc5c4)ccc3c2O)cc1)C(=O)O (centres unmarked)")
6.30

From here, focus on the item given below.
Answer with the recorded pIC50 for the compound listed here: O=C(O)CC(C(=O)O)c1ccc(N=Nc2c(S(=O)(=O)O)cc3cc(NC(=O)C(=O)Nc4ccc5c(O)c(N=Nc6ccc(C(CC(=O)O)C(=O)O)cc6)c(S(=O)(=O)O)cc5c4)ccc3c2O)cc1 (centres unmarked)
6.00
